- subject of test: T1, recombinant canine β NGF (canine, UniProt Q29074 110-229 (pig entry))
- T1 chain: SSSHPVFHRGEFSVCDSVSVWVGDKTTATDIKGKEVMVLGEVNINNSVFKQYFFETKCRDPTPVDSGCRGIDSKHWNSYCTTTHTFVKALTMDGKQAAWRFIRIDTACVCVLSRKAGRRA
- experiment: cell-based or functional assay
measure name: TF-1 cell proliferation potency (70 pM canine NGF)

[[record]]
binder = "Mu82 Canine IgG1/k Chimera (antibody, V domains shown) VH: QVQLKESGPGLVAPSQSLSITCTVSGFSLTGYNINWVRQPPGKGLEWLGMIWGYGDTDYNSALKSRLSISKDNSKSQVFLKMNSLQTDDTARYYCARDHYGGNDWYFDVWGTGTTVTVSS VL: DIQMTQTTSSLSASLGDRVTITCRASQDITNYLNWYQQKPDGTVKLLIYYTSRLHSGVPSRFSGSGSGTDYSLTISNLDQEDIATYFCQQGKTLPRTFGGGTKLEIKR"
reading = "< 50 pM"

[[record]]
binder = "Mu73 Canine IgG1/k Chimera (antibody, V domains shown) VH: QVQLQQPGAELVKPGASVKLSCKASGYTFTNYWMHWVKQRPGQGLEWIGRIDPYGGGTKHNEKFKRKATVTADKSSSTAYILLSSLTSEDSAVYYCTRSGYDYYFDVWGTGTTVTVSS VL: DIQMTQSPASLSASVGETVTVTCRASENIYSFLAWHQQKQGKSPQLLVYNANTLAEGVPSRFSGSGSGTQFSLKINSLQPEDFGSYYCQHHFGTPFTFGSGTKLEIKR"
reading = "< 50 pM"

[[record]]
binder = "Mu81 Canine IgG1/k Chimera (antibody, V domains shown) VH: EVQLVESGGGAVKPGGSLTLSCAASGFTFSNHYMYWVRQTPEKRLEWVASISDGGAYTFYPDTVKGRFTISRDNVNNNLYLQMRHLKSEDTAMYYCTREESANNGFAFWGQGTLVTVSA VL: DVLMTQTPLSLPVSLGDQASISCRSSQSILHSNGNTYLEWYLQKPGQSPNLLIYRVSNRFSGVPDRFSGSGSGTDFTLKISRVEAEDLGVYYCFQGAHVPFTFGSGTKLEIKR"
reading = "< 50 pM"

[[record]]
binder = "Mu77 Canine IgG1/k Chimera (antibody, V domains shown) VH: EVQLQQSGAELVKPGASVKLSCTASGFNIKDTYIYWVKQRPEQGLEWIGRIDPANGNTIYASKFQGKASITADTSSNTAYMQLSSLTSGDTAVYYCAGYGYYAYWGQGTTLTVSS VL: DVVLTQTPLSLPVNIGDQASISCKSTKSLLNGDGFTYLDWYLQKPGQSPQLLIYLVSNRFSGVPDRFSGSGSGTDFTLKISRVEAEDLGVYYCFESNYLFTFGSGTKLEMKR"
reading = "< 50 pM"

